All values here come from ChEMBL document CHEMBL1132477.

# Organism: Rattus norvegicus
# Procedure text: Duration of action in rat
# Assay type: ADME, organism-based
# Condition notes: in vivo
This listing pairs compounds with measured Time.
// units = h; emit number, no label

Use the examples below as a reference point.
>  <Compound>
COCC1=C(C(=O)OC)C(c2ccc(F)c(F)c2)N(C(=O)NCCCN2CCC(C)(c3ccccc3)CC2)C(=O)N1 (centres undefined)

>  <Recorded measurement>
2

$$$$
>  <Compound>
COc1cc2nc(N3CCN(C(=O)C4CCCO4)CC3)nc(N)c2cc1OC (centres undefined) [TERAZOSIN]

>  <Recorded measurement>
3

$$$$

Attention now shifts to the item below.
Recorded result, CCC1=C(C(N)=O)C(c2ccc(F)cc2F)N(C(=O)NCCCN2CCC(C#N)(c3ccccc3)CC2)C(=O)N1 (centres undefined) , Time: 1.5

###

This listing pairs compounds with measured bioavailability.
# Procedure text: Bioavailability in rat
# Format: ADME, organism-based
# Condition notes: in vivo

>  <Compound>
COc1cc2nc(N3CCN(C(=O)C4CCCO4)CC3)nc(N)c2cc1OC (centres undefined)

>  <bioavailability>
49%

$$$$
>  <Compound>
CCC1=C(C(N)=O)C(c2ccc(F)c(F)c2)N(C(=O)NCCCN2CCC(C(=O)OC)(c3ccccc3)CC2)C(=O)N1 (centres undefined)

>  <bioavailability>
15%

$$$$
>  <Compound>
CCC1=C(C(N)=O)C(c2ccc(F)cc2F)N(C(=O)NCCCN2CCC(C#N)(c3ccccc3)CC2)C(=O)N1 (centres undefined)

>  <bioavailability>
8%

$$$$

Attention now shifts to the item below.
Recorded result, COCC1=C(C(=O)OC)C(c2ccc(F)c(F)c2)N(C(=O)NCCCN2CCC(C)(c3ccccc3)CC2)C(=O)N1 (centres undefined) , bioavailability: 23%

###

This listing pairs molecules with measured half-life.
# Procedure text: Plasma half life in rat
# Format: ADME, organism-based
// units = h; emit number, no label

Use the examples below as a reference point.
>  <Molecule>
COCC1=C(C(=O)OC)C(c2ccc(F)c(F)c2)N(C(=O)NCCCN2CCC(C)(c3ccccc3)CC2)C(=O)N1 (centres undefined)

>  <Recorded measurement>
0.4

$$$$
>  <Molecule>
COc1cc2nc(N3CCN(C(=O)C4CCCO4)CC3)nc(N)c2cc1OC (centres undefined)

>  <Recorded measurement>
7.5

$$$$
>  <Molecule>
CCC1=C(C(N)=O)C(c2ccc(F)cc2F)N(C(=O)NCCCN2CCC(C#N)(c3ccccc3)CC2)C(=O)N1 (centres undefined)

>  <Recorded measurement>
0.4

$$$$

Recorded result, CCC1=C(C(N)=O)C(c2ccc(F)c(F)c2)N(C(=O)NCCCN2CCC(C(=O)OC)(c3ccccc3)CC2)C(=O)N1 (centres undefined) , half-life: 2

###

# System tested: Mu-type opioid receptor (Homo sapiens)
# Sequence (P35372 whole entry): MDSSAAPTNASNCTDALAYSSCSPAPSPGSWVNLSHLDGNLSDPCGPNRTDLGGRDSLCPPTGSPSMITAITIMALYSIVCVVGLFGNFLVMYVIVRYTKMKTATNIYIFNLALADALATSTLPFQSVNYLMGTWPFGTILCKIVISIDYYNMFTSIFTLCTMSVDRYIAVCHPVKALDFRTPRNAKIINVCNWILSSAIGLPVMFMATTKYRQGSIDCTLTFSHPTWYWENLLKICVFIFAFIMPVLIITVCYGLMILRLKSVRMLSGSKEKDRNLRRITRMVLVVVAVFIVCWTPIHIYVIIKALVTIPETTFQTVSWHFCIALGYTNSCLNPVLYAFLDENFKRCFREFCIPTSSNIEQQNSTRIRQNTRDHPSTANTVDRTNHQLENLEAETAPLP
This listing pairs molecules with measured IC50.
// units = µM; emit number, no label

Use the examples below as a reference point.
>  <Mol smiles>
c1ccc(C2(c3ccccc3)CCNCC2)cc1

>  <Recorded measurement>
17

$$$$
>  <Mol smiles>
Cc1cc(C)cc(C2(c3cc(C)cc(C)c3)CCNCC2)c1

>  <Recorded measurement>
27

$$$$

Attention now shifts to the item below.
The reported Mu-type opioid receptor (Homo sapiens) IC50 of Cc1ccc(C2(c3ccccc3C)CCNCC2)cc1 is 6

###

# System tested: Alpha-1D adrenergic receptor (Homo sapiens, UniProt P25100)
# Sequence (P25100 whole entry): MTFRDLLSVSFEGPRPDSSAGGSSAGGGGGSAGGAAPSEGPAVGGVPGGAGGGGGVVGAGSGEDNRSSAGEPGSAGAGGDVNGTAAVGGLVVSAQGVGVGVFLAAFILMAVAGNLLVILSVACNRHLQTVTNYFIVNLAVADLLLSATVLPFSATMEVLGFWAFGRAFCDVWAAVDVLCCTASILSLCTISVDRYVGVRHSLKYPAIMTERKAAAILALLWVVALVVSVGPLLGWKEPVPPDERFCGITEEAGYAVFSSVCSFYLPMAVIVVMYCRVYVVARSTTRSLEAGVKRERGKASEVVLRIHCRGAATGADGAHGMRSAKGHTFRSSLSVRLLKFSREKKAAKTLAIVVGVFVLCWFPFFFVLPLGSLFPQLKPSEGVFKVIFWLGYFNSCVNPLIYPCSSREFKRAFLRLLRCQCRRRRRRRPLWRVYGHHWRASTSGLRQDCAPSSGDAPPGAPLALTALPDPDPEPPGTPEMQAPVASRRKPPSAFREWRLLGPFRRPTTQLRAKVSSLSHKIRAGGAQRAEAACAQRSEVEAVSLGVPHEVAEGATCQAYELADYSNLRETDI
Readout: log10(Ki) (log10 of the value in nM)
Please interpret these as log10 of Ki where Ki is in nM.

>  <Compound>
COC(=O)C1=C(C)NC(=O)N(C(=O)NCCCN2CCC(C(=O)OC)(c3ccccc3)CC2)C1c1ccc(F)c(F)c1 (configuration not stated)

>  <Recorded measurement>
2.15

$$$$
>  <Compound>
COC(=O)C1=C(C)NC(=O)N(CCCCCN2CCC(C(=O)OC)(c3ccccc3)CC2)C1c1ccc(F)c(F)c1 (configuration not stated)

>  <Recorded measurement>
2.18

$$$$
>  <Compound>
CCC1=C(C(N)=O)C(c2ccc(F)c(F)c2)N(C(=O)NCCCN2CCC(C(=O)OC)(c3ccccc3)CC2)C(=O)N1 (configuration not stated)

>  <Recorded measurement>
2.53

$$$$
>  <Compound>
COCC1=C(C(=O)OC)C(c2cc(F)c(F)c(F)c2)N(C(=O)N2CCC(N3CCC(C(=O)OC)(c4ccccc4)CC3)CC2)C(=O)N1 (configuration not stated)

>  <Recorded measurement>
3.73

$$$$
>  <Compound>
CCC1=C(C(N)=O)C(c2ccc(F)cc2F)N(C(=O)NCCCN2CCC(C#N)(c3ccccc3)CC2)C(=O)N1 (configuration not stated)

>  <Recorded measurement>
3.11

$$$$
>  <Compound>
COC(=O)C1=C(C)NC(=O)N(C(=O)NCCCN2CCC(c3ccccc3)(c3ccccc3)CC2)C1c1ccc(F)c(F)c1 (configuration not stated)

>  <Recorded measurement>
2.28

$$$$

Attention now shifts to the item below.
Recorded result, COC(=O)C1=C(C)NC(=O)N(C(=O)NCCCN2CCC3(CCc4ccccc43)CC2)C1c1ccc(F)c(F)c1 (configuration not stated) , log10(Ki): 2.36

###

# System tested: Alpha-1A adrenergic receptor (Homo sapiens)
# Sequence (P35348 whole entry): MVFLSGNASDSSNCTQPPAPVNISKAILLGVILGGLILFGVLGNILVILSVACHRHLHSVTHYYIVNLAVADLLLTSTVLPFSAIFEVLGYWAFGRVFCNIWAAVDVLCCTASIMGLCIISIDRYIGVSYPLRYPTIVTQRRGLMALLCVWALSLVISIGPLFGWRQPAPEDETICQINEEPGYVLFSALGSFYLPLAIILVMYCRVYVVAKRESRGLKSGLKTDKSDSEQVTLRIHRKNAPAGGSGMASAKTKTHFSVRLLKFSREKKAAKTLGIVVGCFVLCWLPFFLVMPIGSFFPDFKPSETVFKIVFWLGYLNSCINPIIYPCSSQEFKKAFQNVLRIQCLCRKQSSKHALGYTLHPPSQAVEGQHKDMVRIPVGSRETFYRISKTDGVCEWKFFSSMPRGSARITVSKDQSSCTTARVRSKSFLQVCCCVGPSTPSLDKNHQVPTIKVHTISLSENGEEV
Readout: Ki
Answer by giving the amount and then stating its unit.

>  <Compound>
CCC1=C(C(N)=O)C(c2ccc(F)cc2F)N(C(=O)NCCCN2CCC(C(=O)OC)(c3ccccc3)CC2)C(=O)N1 (configuration not stated)

>  <Readout>
Ki

>  <Recorded measurement>
200 pM

$$$$

Recorded result, COC(=O)C1=C(C)NC(=O)N(CCCCCN2CCC(C(=O)OC)(c3ccccc3)CC2)C1c1ccc(F)c(F)c1 (configuration not stated) , Ki: 100 pM

Recorded result, COCC1=C(C(=O)OC)C(c2ccc(F)c(F)c2)N(C(=O)NCCCN2CCC(C#N)(c3ccc(F)cc3)CC2)C(=O)N1 (configuration not stated) , Ki: 60 pM

Recorded result, COC(=O)C1=C(C)NC(=O)N(C(=O)NCCCN2CCC3(CC2)OC(=O)Cc2ccccc23)C1c1ccc(F)c(F)c1 (configuration not stated) , Ki: 200 pM

Recorded result, COCC1=C(C(=O)OC)C(c2cc(F)c(F)c(F)c2)N(C(=O)N2CCC(N3CCC(C(=O)OC)(c4ccccc4)CC3)CC2)C(=O)N1 (configuration not stated) , Ki: 1700 pM

Recorded result, CCC1=C(C(N)=O)C(c2ccc(F)cc2F)N(C(=O)N2CCC(N3CCC(C(=O)OC)(c4ccccc4)CC3)CC2)C(=O)N1 (configuration not stated) , Ki: 81000 pM

Recorded result, COCC1=C(C(=O)OC)C(c2ccc(F)c(F)c2)N(C(=O)NCCCN2CCC(C)(c3ccccc3)CC2)C(=O)N1 (configuration not stated) , Ki: 500 pM
